- TARGET_SYSTEM: NLRP3 inflammasome (Homo sapiens)
- PROTOCOL_NOTES: NLRP3 inflammasome activation assay in PBMCs, IL-1β release (ELISA / HTRF)
- Format: cell-based
- Set-up: were freshly isolated from human peripheral blood from healthy donors; StemCells Technologies; host or cells: primary human PBMCs, LPS-primed, nigericin-stimulated
- CONDITION_LABEL: LPS primed, 10 uM nigericin, read-out: PBMC IL-1 β IC50
READOUT_KIND: IC50

{"COMPOUND": "CN[C@@H]1COc2c(S(=N)(=O)NC(=O)Nc3c(C(C)C)cc(F)cc3C(C)C)cnn2C1 (single isomer, unassigned) [drawing 675]", "TARGET_SYSTEM": "NLRP3 inflammasome (Homo sapiens)", "READOUT_VALUE": "100 to 1000 nM"}
{"COMPOUND": "CO[C@@H]1COc2c(S(=N)(=O)NC(=O)Nc3c4c(cc5c3CCC5)CCC4)cnn2C1 (stereo partly shown) [drawing 667]", "TARGET_SYSTEM": "NLRP3 inflammasome (Homo sapiens)", "READOUT_VALUE": "100 to 1000 nM"}
{"COMPOUND": "CO[C@@H]1COc2c(S(=N)(=O)NC(=O)Nc3c(C(C)C)cc(F)cc3C(C)C)cnn2C1 (stereo partly shown) [drawing 672]", "TARGET_SYSTEM": "NLRP3 inflammasome (Homo sapiens)", "READOUT_VALUE": "100 to 1000 nM"}
{"COMPOUND": "CO[C@@H]1COc2c(S(=N)(=O)NC(=O)Nc3c4c(c(F)c5c3CCC5)CCC4)cnn2C1 (stereo partly shown) [drawing 666]", "TARGET_SYSTEM": "NLRP3 inflammasome (Homo sapiens)", "READOUT_VALUE": "< 100 nM"}

###

- TARGET_SYSTEM: NLRP3 inflammasome (Homo sapiens)
- PROTOCOL_NOTES: THP-1 ASC-GFP speck assay
- Assay type: cell-based
- Design: host or cells: THP-1 ASC-GFP cells, PMA-differentiated, LPS-primed, nigericin-stimulated
- CONDITION_LABEL: THP-1 ASC-GFP cells, PMA differentiated, LPS primed, 10 μM nigericin; read-out: THP1 ASC Speck IC50
- Description: THP-1 ASC-GFP cell line was purchased from Invivogen, San Diego, for inflammasome activation assay. THP-1 ASC-GFP cells stably express a 37.6 kDa ASC::GFP fusion protein that enables monitoring of spec formation by microscopy after activation of NLRP3 dependent inflammasome pathway. […] THP-1 ASC-GFP cells were imaged in 488 and Hoechst channels. […] Percentage of cells with a spec was calculated by dividing the number of GFP positive spots by total number of cells.
# IC50 values compiled below
READOUT_KIND: IC50 (nM)

{"COMPOUND": "CNC1COc2c(S(N)(=O)=NC(=O)Nc3c(C(C)C)cc(OC)nc3C(C)C)cnn2C1 (single isomer, unassigned) [Example 50]", "READOUT_KIND": "IC50", "QUALIFIER_SIGN": "=", "READOUT_VALUE": 430}
{"COMPOUND": "COc1cc(-c2ccc3c(c2NC(=O)N=S(N)(=O)c2cnn4c2OCCC4)CCO3)ccn1 (single isomer, unassigned) [Example 157]", "READOUT_KIND": "IC50", "QUALIFIER_SIGN": "=", "READOUT_VALUE": 710}
{"COMPOUND": "CC1(C)COc2c(S(N)(=O)=NC(=O)Nc3c4c(cc5c3CCC5)CCC4)cnn2C1 (single isomer, unassigned) [Example 81]", "READOUT_KIND": "IC50", "QUALIFIER_SIGN": "=", "READOUT_VALUE": 20}
{"COMPOUND": "COC1COc2c(S(N)(=O)=NC(=O)Nc3c4c(cc5c3CCC5)CCC4)cnn2C1 (single isomer, unassigned)", "READOUT_KIND": "IC50", "QUALIFIER_SIGN": "=", "READOUT_VALUE": 640}
{"COMPOUND": "NS(=O)(=NC(=O)Nc1c2c(cc3c1CCC3)CCC2)c1cnn2c1OCCC2 (single isomer, unassigned) [Example 13]", "READOUT_KIND": "IC50", "QUALIFIER_SIGN": "=", "READOUT_VALUE": 75}
{"COMPOUND": "NS(=O)(=NC(=O)Nc1c2c(cc3c1CCC3)CCC2)c1cnn2c1CCOCC2 (single isomer, unassigned) [Example 117]", "READOUT_KIND": "IC50", "QUALIFIER_SIGN": "=", "READOUT_VALUE": 4300}
{"COMPOUND": "CNC1CCOc2c(S(N)(=O)=NC(=O)Nc3c4c(cc5c3CCC5)CCC4)cnn2C1 (single isomer, unassigned) [Example 110]", "READOUT_KIND": "IC50", "QUALIFIER_SIGN": "=", "READOUT_VALUE": 120}
{"COMPOUND": "CCn1nc(C(C)C)c(NC(=O)N=S(N)(=O)c2cnn3c2OCCC3)c1C(C)C (single isomer, unassigned) [Example 99]", "READOUT_KIND": "IC50", "QUALIFIER_SIGN": "=", "READOUT_VALUE": 1700}
{"COMPOUND": "CC1(C)COc2c(S(N)(=O)=NC(=O)Nc3c4c(cc5c3CC(F)C5)CCC4)cnn2C1 (single isomer, unassigned) [Example 154]", "READOUT_KIND": "IC50", "QUALIFIER_SIGN": "=", "READOUT_VALUE": 1800}
{"COMPOUND": "CC1CCc2cc3c(c(NC(=O)N=S(N)(=O)c4cnn5c4OCC(C)(C)C5)c21)CCC3 (single isomer, unassigned) [Example 138]", "READOUT_KIND": "IC50", "QUALIFIER_SIGN": "=", "READOUT_VALUE": 790}
{"COMPOUND": "CC1(C)COc2c(S(N)(=O)=NC(=O)Nc3c4c(cc5c3CCC5)CCC4)cnn2C1 (single isomer, unassigned) [Example 80]", "READOUT_KIND": "IC50", "QUALIFIER_SIGN": "=", "READOUT_VALUE": 4500}
{"COMPOUND": "CNCc1cc(C(C)C)c(NC(=O)N=S(N)(=O)c2cnn3c2OCCC3)c(C(C)C)n1 (single isomer, unassigned) [Example 84]", "READOUT_KIND": "IC50", "QUALIFIER_SIGN": ">", "READOUT_VALUE": 20000}
{"COMPOUND": "COC1CCOc2c(S(N)(=O)=NC(=O)Nc3c4c(cc5c3CCC5)CCC4)cnn2C1 (single isomer, unassigned) [Example 90]", "READOUT_KIND": "IC50", "QUALIFIER_SIGN": "=", "READOUT_VALUE": 320}

###

- TARGET_SYSTEM: NLRP3 inflammasome (Homo sapiens)
- PROTOCOL_NOTES: THP-1 ASC-GFP speck assay
- Assay type: cell-based
- Parameters: host or cells: THP-1 ASC-GFP cells, PMA-differentiated, LPS-primed, nigericin-stimulated
- CONDITION_LABEL: THP-1 ASC-GFP cells, PMA differentiated, LPS primed, 10 μM nigericin; read-out: THP1 ASC Speck IC50
# IC50 values compiled below

{"COMPOUND": "CN(C)[C@@H]1COc2c([S@@](N)(=O)=NC(=O)Nc3c4c(c(F)c5c3CCC5)CCC4)cnn2C1 (single isomer, unassigned) [Example 45]", "IC50": "11 nM"}
{"COMPOUND": "CN(C)[C@@H]1COc2c([S@](=O)(=NC(=O)Nc3c4c(c(F)c5c3CCC5)CCC4)NC#N)cnn2C1 (single isomer, unassigned) [Example 111]", "IC50": "100 nM"}
{"COMPOUND": "COc1cc(C(C)C)c(NC(=O)N=S(N)(=O)c2cnn3c2OCC(OC)C3)c(C(C)C)n1 (single isomer, unassigned) [Example 53]", "IC50": "1200 nM"}
{"COMPOUND": "CC1CCn2ncc(S(N)(=O)=NC(=O)Nc3c4c(cc5c3CCC5)CCC4)c2OC1 (single isomer, unassigned) [Example 79]", "IC50": "1000 nM"}
{"COMPOUND": "CNC1COc2c(S(N)(=O)=NC(=O)Nc3c4c(cc5c3CCC5)CCC4)cnn2C1 (single isomer, unassigned) [Example 26]", "IC50": "9.7 nM"}
{"COMPOUND": "CO[C@H]1CCOc2c([S@](=O)(=NC(=O)Nc3c4c(cc5c3CCC5)CCC4)NC#N)cnn2C1 (single isomer, unassigned) [Example 123]", "IC50": "120 nM"}

###

- TARGET_SYSTEM: NLRP3 inflammasome (Homo sapiens, UniProt Q96P20)
- Sequence (Q96P20 whole entry): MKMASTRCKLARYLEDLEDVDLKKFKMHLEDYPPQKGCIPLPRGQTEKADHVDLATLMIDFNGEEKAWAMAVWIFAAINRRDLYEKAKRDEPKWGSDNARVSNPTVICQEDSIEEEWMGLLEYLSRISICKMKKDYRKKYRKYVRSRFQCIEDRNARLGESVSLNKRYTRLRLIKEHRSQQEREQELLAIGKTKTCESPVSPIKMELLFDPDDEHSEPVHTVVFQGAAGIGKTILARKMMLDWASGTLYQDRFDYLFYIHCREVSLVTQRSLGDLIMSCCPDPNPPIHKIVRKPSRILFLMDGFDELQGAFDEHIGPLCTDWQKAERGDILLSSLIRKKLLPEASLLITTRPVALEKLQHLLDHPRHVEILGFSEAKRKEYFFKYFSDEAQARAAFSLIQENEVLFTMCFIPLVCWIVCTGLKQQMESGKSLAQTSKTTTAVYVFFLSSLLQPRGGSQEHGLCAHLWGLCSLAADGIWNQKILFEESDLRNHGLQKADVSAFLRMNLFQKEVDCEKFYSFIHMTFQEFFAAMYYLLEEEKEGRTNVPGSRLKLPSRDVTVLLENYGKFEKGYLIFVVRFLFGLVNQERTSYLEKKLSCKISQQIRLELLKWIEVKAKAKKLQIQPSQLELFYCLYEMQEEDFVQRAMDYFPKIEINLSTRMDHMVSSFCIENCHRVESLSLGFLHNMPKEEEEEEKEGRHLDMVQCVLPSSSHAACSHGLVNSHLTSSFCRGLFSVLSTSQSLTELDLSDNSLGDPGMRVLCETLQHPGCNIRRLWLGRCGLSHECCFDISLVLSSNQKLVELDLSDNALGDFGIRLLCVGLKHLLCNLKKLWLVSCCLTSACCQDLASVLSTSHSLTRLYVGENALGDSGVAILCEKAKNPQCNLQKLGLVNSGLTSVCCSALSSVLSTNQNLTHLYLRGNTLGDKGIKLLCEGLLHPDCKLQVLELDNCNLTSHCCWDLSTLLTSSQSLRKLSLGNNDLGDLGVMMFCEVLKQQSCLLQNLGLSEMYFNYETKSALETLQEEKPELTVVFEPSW
- PROTOCOL_NOTES: THP-1 ASC-GFP speck assay
- Type: cell-based
- Parameters: host or cells: THP-1 ASC-GFP cells, PMA-differentiated, LPS-primed, nigericin-stimulated
- CONDITION_LABEL: THP-1 ASC-GFP cells, PMA differentiated, LPS primed, 10 μM nigericin; read-out: THP1 ASC Speck IC50
pIC50: −log10 of the molar value.
# pIC50 values compiled below

{"COMPOUND": "COC1CCOc2c(S(N)(=O)=NC(=O)Nc3c4c(cc5c3CCC5)CCC4)cnn2C1 (single isomer, unassigned) [Example 88]", "QUALIFIER_SIGN": "=", "pIC50": 5.11}
{"COMPOUND": "CCn1nc(C(C)C)c(NC(=O)N=S(N)(=O)c2cnn3c2OCCC3)c1C(C)C (single isomer, unassigned) [Example 98]", "QUALIFIER_SIGN": "<", "pIC50": 4.70}
{"COMPOUND": "CC1CCc2cc3c(c(NC(=O)N=S(N)(=O)c4cnn5c4OCC(C)(C)C5)c21)CCC3 (single isomer, unassigned) [Example 137]", "QUALIFIER_SIGN": "=", "pIC50": 7.55}
{"COMPOUND": "COC1COc2c(S(N)(=O)=NC(=O)Nc3c4c(c(F)c5c3CCC5)CCC4)cnn2C1 (single isomer, unassigned) [Example 31]", "QUALIFIER_SIGN": "=", "pIC50": 6.21}
{"COMPOUND": "CC1(C)Cn2ncc(S(N)(=O)=NC(=O)Nc3c4c(cc5c3CCC5)CCC4)c2O1 (single isomer, unassigned) [Example 140]", "QUALIFIER_SIGN": "=", "pIC50": 6.25}

Where do these numbers come from? They come from patent US12234245B2.
